target: Glucagon-like peptide 1 receptor (Homo sapiens) (UniProt P43220); experiment: qHTS of GLP-1 Receptor Inverse Agonists (Inhibition Mode); conditions: HEK293 GLP-1R CRE-luciferase, luminescence, 24 h, GLP-1R form is constitutively active; series mostly up to 38.3 µM; further: nearly all actives have a fitted effect of over 55% in size
Sequence (P43220 whole entry, looked up): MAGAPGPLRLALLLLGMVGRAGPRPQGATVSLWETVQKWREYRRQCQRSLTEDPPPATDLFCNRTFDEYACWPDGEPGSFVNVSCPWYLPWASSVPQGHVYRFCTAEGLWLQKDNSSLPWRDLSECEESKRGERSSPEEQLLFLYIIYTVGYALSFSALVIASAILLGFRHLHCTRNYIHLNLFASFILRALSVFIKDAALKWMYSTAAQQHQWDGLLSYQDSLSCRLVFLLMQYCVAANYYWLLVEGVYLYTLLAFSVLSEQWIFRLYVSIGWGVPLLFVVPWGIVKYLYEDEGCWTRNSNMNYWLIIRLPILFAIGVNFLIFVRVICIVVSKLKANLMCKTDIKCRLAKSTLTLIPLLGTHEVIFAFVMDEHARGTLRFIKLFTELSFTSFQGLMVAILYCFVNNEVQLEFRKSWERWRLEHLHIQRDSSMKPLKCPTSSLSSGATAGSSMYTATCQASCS
About 6,400 (1.6%) of roughly 410,000 compounds were called active. About 20% were inconclusive and are not listed. The call rests on the fitted dose curve; in most records, active means well fitted inhibition curve with a large enough effect; inconclusive means small, poorly fitted or top-dose-only effect; inactive means no such curve, though single readings can be large or run the other way. What follows is part of a selection rich in actives, with near analogues and random picks from the rest.
Bench note: report the call from TRUE (active), FALSE (inactive)

[[record]]
compound = "CC1C(=O)N(Cc2cn(CC3CCCCC3)nn2)CCS(=O)(=O)N1Cc1ccc(-c2cccc(N(C)C)c2)cc1 (centres undefined)"
classassignment = "FALSE"

[[record]]
compound = "CCCCCOc1ccc(CSC2=NCCN2)cc1[N+](=O)[O-]"
classassignment = "TRUE"

[[record]]
compound = "CCN1CCN(CCNC(=O)c2ccc3c(c2)NC(=O)/C(=C\\c2cccc(Cl)c2)S3)CC1"
classassignment = "FALSE"

[[record]]
compound = "O=C1NC[C@H](Cc2ccc(O)cc2)N(C[C@@H]2CCCN2C[C@H](Cc2ccccc2)N2C[C@H](Cc3ccccc3)N(CC3CCCCC3)C(=O)C2=O)C1=O"
classassignment = "FALSE"

[[record]]
compound = "Cc1nc(SCc2ccc(F)cc2)c([N+](=O)[O-])[nH]1"
classassignment = "FALSE"


Continue with the next compound.
Outcome? COc1ccc(NC(=O)c2sc3nc(C)nc(N4CCN(c5ccccn5)CC4)c3c2C)c(OC)c1 FALSE

----------
Target: Glucagon-like peptide 1 receptor (Homo sapiens) (UniProt P43220)
Test: qHTS of GLP-1 Receptor Inverse Agonists (Inhibition Mode); further: nearly all actives have a fitted effect of over 55% in size
Conditions: HEK293 GLP-1R CRE-luciferase, luminescence, 24 h, GLP-1R form is constitutively active; series mostly up to 38.3 µM
Description: The overall goal of this project was to develop a novel assay for discovering small molecule ligands for class B1 G protein-coupled receptors (GPCRs). […] The assay was developed using a cell-based functional readout. […] Six ul of cell suspension (200 cells/uL in DMEM + 10% Nu serum + 1% pen-strep) is dispensed in a white solid 1536-well plate. […] A luminescence read is obtained on the PerkinElmer Viewlux after 12 min incubation at room temperature.
Hit rate of the full screen: of about 410,000 compounds, about 6,400 (1.6%) were called active. Inconclusive results (about 20%) are left out. The call rests on the fitted dose curve; in most records, active means well fitted inhibition curve with a large enough effect; inconclusive means small, poorly fitted or top-dose-only effect; inactive means no such curve, though single readings can be large or run the other way. Many of the other results were omitted from the sample, so actives are more common in it than they were.
Bench note: report the call from active, inactive

[[record]]
compound = "O=S(=O)(c1cccc(C(F)(F)F)c1)N1CCN(c2cnccn2)CC1"
systemname = "Glucagon-like peptide 1 receptor (Homo sapiens) (UniProt P43220)"
classassignment = "inactive"

[[record]]
compound = "CCc1c(N=O)c(-c2ccccc2)n(O)[n+]1[O-]"
systemname = "Glucagon-like peptide 1 receptor (Homo sapiens) (UniProt P43220)"
classassignment = "inactive"

[[record]]
compound = "CCOc1ccccc1-c1cc(C(=O)N2CCOCC2)c2ccccc2n1"
systemname = "Glucagon-like peptide 1 receptor (Homo sapiens) (UniProt P43220)"
classassignment = "inactive"

[[record]]
compound = "CCc1ccccc1NC(=S)Nc1cc(OC)c(NC(=O)C(C)C)cc1OC"
systemname = "Glucagon-like peptide 1 receptor (Homo sapiens) (UniProt P43220)"
classassignment = "inactive"


Outcome? COc1cc(SC)ccc1C(=O)NCCOc1ccccc1Cl inactive

Outcome? O=C(N/N=C/c1ccc(OC(=O)c2ccccc2Cl)cc1)c1ccc(O)cc1 inactive

Outcome? CC(=O)NCC(=O)N1CCCC(C(=O)c2ccc3c4c(cccc24)CC3)C1 (configuration not stated) inactive

Outcome? CC1=NN(c2cccc(Cl)c2)C(=O)C12CC(C)=C(C)CS2 (configuration not stated) active

Outcome? N#Cc1ccc(-c2nc3c(Cl)cc(C(F)(F)F)cn3c2Cc2ccccc2C(F)(F)F)cc1 inactive

Outcome? O=C(N/N=C/c1ccc(OCc2ccccc2)cc1)c1ccc(O)cc1 active

Outcome? N#CCSc1ccccc1NC(=O)CN1C(=O)NC(CCc2ccccc2)C1=O (configuration not stated) inactive

Outcome? C[C@H](O)[C@@H]1C(=O)N2CCc3c([nH]c4ccccc34)[C@@H]2C[C@@H]1N(C)C(=O)Nc1ccc(F)cc1 inactive

This collection of values is drawn from PubChem BioAssay AID624417.
